- PARTICULARS: in isobutanol, 298.15 K
ASSAY_READOUT: solubility (mole fraction)
Lab note: record just the number, no unit beside it.

get_value(item= CCCOC(=O)c1cc(O)c(O)c(O)c1 , readout=solubility (mole fraction)) returns 0.209

----------
- PARTICULARS: in acetone, 318.15 K
ASSAY_READOUT: solubility (mole fraction)
// response body must contain only the number

Note to self: solubility (mole fraction) recorded for CCCOC(=O)c1cc(O)c(O)c(O)c1 was 0.387

----------
- PARTICULARS: in n-butanol, 318.15 K
ASSAY_READOUT: solubility (mole fraction)
Number, no unit, nothing else.

GET /value?item= CCCOC(=O)c1cc(O)c(O)c(O)c1 &field=solubility (mole fraction) returns 0.333
